B1: library; numbered along this chain (parent)
chain: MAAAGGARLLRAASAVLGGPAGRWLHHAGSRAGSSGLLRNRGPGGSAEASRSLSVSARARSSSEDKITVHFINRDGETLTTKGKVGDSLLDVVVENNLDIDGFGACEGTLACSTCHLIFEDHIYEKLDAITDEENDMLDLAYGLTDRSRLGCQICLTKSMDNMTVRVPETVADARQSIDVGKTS

Variants of: B1
ASSAY_OVERVIEW: scaled log2 fold change in cell abundance, elesclomol vs control (0 = silent mean, 1 = nonsense mean) (scaled log2 ratio); higher = higher viability under elesclomol (loss of FDX1 cuproptosis function);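 note: variant abundance is its share of total variant reads in each endpoint sample, from next-generation sequencing of the integrated ORF PCR-amplified out of genomic DNA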
STATED_CONDITIONS: with HEK293T FDX1 KO; elesclomol 40 nM; glucose 10 mM; 11 days
# cutoff -0.04 applies to scaled log2 fold change; >= gives 1, < gives 0

SEQUENCE_CHANGE	ASSIGNED_LABEL
T170W	1
R39Y	0
L89I	1
S88W	0
L144S	1
R175N	1
S184Y	1
G36H	0
T157D	0
D161L	1
N40A	1
I154E	1
G29Q	1
G22I	1
G45Y	1
S35V	0
N96M	0
H122W	0
S184W	1
G102N	1
A12G	0
D136M	0
D65N	1
L138K	0
